Recorded pEC50 by entry
# Measured Target: hGLP-1R (Homo sapiens)
# Sequence (P43220 24-463): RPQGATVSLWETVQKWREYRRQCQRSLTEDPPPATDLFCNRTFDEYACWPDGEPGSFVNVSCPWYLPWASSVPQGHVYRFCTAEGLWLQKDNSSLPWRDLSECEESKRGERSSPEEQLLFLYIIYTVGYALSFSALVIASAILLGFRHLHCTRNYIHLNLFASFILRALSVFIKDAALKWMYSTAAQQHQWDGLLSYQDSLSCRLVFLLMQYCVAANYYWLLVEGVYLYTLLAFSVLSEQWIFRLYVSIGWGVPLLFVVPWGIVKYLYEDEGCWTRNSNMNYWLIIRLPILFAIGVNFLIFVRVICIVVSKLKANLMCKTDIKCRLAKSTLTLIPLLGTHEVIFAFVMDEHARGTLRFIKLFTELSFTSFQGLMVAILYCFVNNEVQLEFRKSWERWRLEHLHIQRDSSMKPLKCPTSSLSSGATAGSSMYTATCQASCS
# Measurement Protocol: Functional cAMP activity in the presence of 1% HSA
# Assay type: cell-based
# Condition Parameters: read-out: cAMP Rel EC50, hGLP-1R
pEC50: −log10 of the molar value. Starred links: 1 amine or outer side, 2 acyl side, 3 side chain; linkers in the order of their positions; H or OH if unused. Non-standard residues stand in square brackets, D forms with d. Groups on a side chain read outwards from the residue. No end group written: not given here. *: point of attachment. C20 diacid = O=C(O)CCCCCCCCCCCCCCCCCCC(=O)*; C18 diacid = O=C(O)CCCCCCCCCCCCCCCCC(=O)*; αMePhe(2-F) = C[C@](N)(Cc1ccccc1F)C(=O)O; γGlu = O=C(O)[C@H](CCC(=O)[*:2])N[*:1]; αMe4Pal = C[C@](N)(Cc1ccncc1)C(=O)O; αMeY = C[C@](N)(Cc1ccc(O)cc1)C(=O)O; αMeF = C[C@](N)(Cc1ccccc1)C(=O)O; 4Pal = N[C@@H](Cc1ccncc1)C(=O)O; αMeL = CC(C)C[C@](C)(N)C(=O)O; αMeS = C[C@](N)(CO)C(=O)O; Orn = NCCC[C@H](N)C(=O)O; AEEA = NCCOCCOCC(=O)O; Aib = CC(C)(N)C(=O)O
Readout Type: pEC50

- Substance: "Y[Aib]QGT[αMePhe(2-F)]TSD[4Pal][αMeS]I[αMeL]LD[Orn]K([γGlu-γGlu-C18 diacid])AQ[Aib]QFI[dE][αMeY]LQEGGPSSGEPPPEGTE-NH2 [Example 528]"
  Readout Type: "pEC50"
  Measurement: 7.61
- Substance: "H-Y[Aib]QGT[αMePhe(2-F)]TSD[4Pal][αMeS]I[αMeL]LD[Orn]K([AEEA-γGlu-C18 diacid])AQ[αMe4Pal]EFI[dE][αMeY]LIEGGPPS[Aib][Orn]PPPSGGGE-NH2 [Example 1199]"
  Readout Type: "pEC50"
  Measurement: 7.19
- Substance: "H-Y[Aib]QGTFTSDYSI[αMeL]LDKQAAK([AEEA-AEEA-γGlu-C20 diacid])AFVEWLLAGGPSSGEPPPSEG-NH2 [Example 305]"
  Readout Type: "pEC50"
  Measurement: 6.38
- Substance: "H-Y[Aib]QGT[αMePhe(2-F)]TSD[4Pal]SILLDKK([γGlu-γGlu-C18 diacid])AQ[Aib]AFIEYLEEGGPSSGAPPPSGEEE-NH2 [Example 611]"
  Readout Type: "pEC50"
  Measurement: 6.84
- Substance: "H-Y[Aib]QGT[αMePhe(2-F)]TSD[4Pal]SI[αMeL]LD[Orn]K([γGlu-γGlu-C18 diacid])AQ[αMe4Pal]EFI[dE][αMeY]LQEGGPSSGEPPPSGS-NH2 [Example 649]"
  Readout Type: "pEC50"
  Measurement: 7.20
- Substance: "H-Y[Aib]QGT[αMePhe(2-F)]TSD[4Pal][αMeS]ILLD[Orn]K([γGlu-γGlu-C18 diacid])AQ[Aib][Orn]FI[dE]YLIEGGPSSGEPPPEGAEE-NH2 [Example 604]"
  Readout Type: "pEC50"
  Measurement: 7.29
- Substance: "H-Y[Aib]QGT[αMePhe(2-F)]TSD[4Pal][αMeS]I[αMeL]LD[Orn][Orn]([AEEA-γGlu-C18 diacid])AQ[αMe4Pal]EFI[dE][αMeY]LIEGGPSSGAPPPSGSE-NH2 [Example 1212]"
  Readout Type: "pEC50"
  Measurement: 7.42
- Substance: "Y[Aib]QGT[αMePhe(2-F)]TSD[4Pal][αMeS]I[αMeL]LD[Orn]K([AEEA-γGlu-C18 diacid])AQ[αMe4Pal]EFI[dE][αMeY]LIEGGPPS[Aib][Orn]PPPSGSE-NH2 [Example 1198]"
  Readout Type: "pEC50"
  Measurement: 7.21
- Substance: "Y[Aib]QGT[αMePhe(2-F)]TSD[4Pal][αMeS]I[αMeL]LD[Orn]K([AEEA-γGlu-C18 diacid])AQ[αMe4Pal]EFI[dE][αMeY]LVEGGPSSGEPPPSGGGE-NH2 [Example 735]"
  Readout Type: "pEC50"
  Measurement: 7.39
- Substance: "H-Y[Aib]QGTFTSD[4Pal]SQ[αMeL]LDKK([γGlu-γGlu-C18 diacid])AQ[αMe4Pal]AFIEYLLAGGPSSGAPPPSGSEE-NH2 [Example 1036]"
  Readout Type: "pEC50"
  Measurement: 5.97
- Substance: "Y[Aib]QGT[αMePhe(2-F)]TSD[4Pal][αMeS]I[αMeL]LD[Orn]K([γGlu-γGlu-C18 diacid])AQ[αMe4Pal]EFI[dE][αMeY]LIEGGPSSGAPPPSGE-NH2 [Example 1150]"
  Readout Type: "pEC50"
  Measurement: 7.52
- Substance: "Y[Aib]QGTFTSD[4Pal]SQ[αMeL]LD[Orn]K([dE-γGlu-C18 diacid])AQ[αMe4Pal]QFIE[αMeY]LIAGGPSSGAPPPSGSEEE-NH2 [Example 1081]"
  Readout Type: "pEC50"
  Measurement: 6.82
- Substance: "H-Y[Aib]QGT[αMePhe(2-F)]TSD[4Pal][αMeS]I[αMeL]LD[Orn]K([AEEA-γGlu-C18 diacid])AQ[αMe4Pal]EFI[dE][αMeY]LIEGGPPS[Aib][Orn]PPP[Orn]GE-NH2 [Example 1195]"
  Readout Type: "pEC50"
  Measurement: 7.35
- Substance: "H-Y[Aib]QGT[αMeF]TSD[4Pal][αMeS]I[αMeL]LD[Orn]K([γGlu-γGlu-C18 diacid])AQ[αMe4Pal]EFI[dE][αMeY]LIEGGPSSGAPPPSGSE-NH2 [Example 1172]"
  Readout Type: "pEC50"
  Measurement: 7.34
- Substance: "H-Y[Aib]QGTFTSDFS[Orn][αMeL]LDKK([AEEA-γGlu-C18 diacid])AQ[Aib]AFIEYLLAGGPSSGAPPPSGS[AEEA]-NH2 [Example 89]"
  Readout Type: "pEC50"
  Measurement: 6.34
- Substance: "H-Y[Aib]QGTFTSD[4Pal][αMeS]I[αMeL]LD[Orn]K([dE-γGlu-C18 diacid])AQ[αMe4Pal]QFIQ[αMeY]LIE[Aib]GPSSGAPPPSGGGE-NH2 [Example 1136]"
  Readout Type: "pEC50"
  Measurement: 7.41
- Substance: "H-Y[Aib]QGTFTSD[4Pal]SQ[αMeL]LDKK([AEEA-γGlu-C18 diacid])AQ[αMe4Pal]AFIEYLIE[Aib]GPSSGAPPPSGSGE-NH2 [Example 888]"
  Readout Type: "pEC50"
  Measurement: 6.62
- Substance: "Y[Aib]QGTFTSD[4Pal]SR[αMeL]LDKK([AEEA-γGlu-C18 diacid])AQ[αMe4Pal]AFIE[αMeY]LIEGGPSSGAPPPSGS-NH2 [Example 843]"
  Readout Type: "pEC50"
  Measurement: 6.87
- Substance: "H-Y[Aib]QGT[αMePhe(2-F)]TSD[4Pal][αMeS]I[αMeL]LD[Orn]K([γGlu-γGlu-C18 diacid])AQ[αMe4Pal]EFI[dE][αMeY]LIEGGPPS[Aib][Orn]PPP[Orn]SE-NH2 [Example 1228]"
  Readout Type: "pEC50"
  Measurement: 7.41
- Substance: "H-Y[Aib]QGT[αMePhe(2-F)]TSD[4Pal]SI[αMeL]LDKK([γGlu-γGlu-C18 diacid])AQ[Aib]AFIEYLEEGGPSSGEPPPSGEGE-NH2 [Example 625]"
  Readout Type: "pEC50"
  Measurement: 7.14

Measured values drawn from patent US20240270821A1 for this set.
